B1: CPOX (parent)
chain: HAPTIHFNYRYFEVEEADGNKQWW

- Variants of: B1
- test_protocol: protein stability index of a GFP-peptide fusion (GPS, HEK-293T) (PSI 1-6); higher = more stable;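 further: lentivirally expressed fusions sorted by FACS into six bins by GFP to DsRed ratio, PSI derived from sequencing read proportions per bin multiplied by bin number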
- experimental_context: c terminus: a fixed tail appended
variants and their reported protein stability index

Complete the entry with protein stability index for `Q22E`
3.35

Next:
For `R10T` , write its protein stability index.
2.55

Report protein stability index, nothing else, for this variant: `N20V`
2.27

For the variant `I5H` , report protein stability index.
2.82

Return value of protein stability index for input `R10K` , no commentary.
2.47

Annotate the variant `V14Y` with its measured protein stability index.
2.23

Assign protein stability index to the following record: `W23S`
3.19

Using known records, supply protein stability index for `F7T`
3.15
